Kindly supply the reported MIC S. pneumo. 1175 values for the records listed here.
- Tested on: Streptococcus pneumoniae 1175
- Assay type: cell-based
- reported_conditions: S. pneumoniae 1175 (mefA); microtiter broth dilution
- Excerpt: The assay described herein includes a panel of bacterial strains assembled to include a variety of target pathogenic species, including representatives of macrolide resistance mechanisms that have been characterized. In many cases, both the macrolide-susceptible parent strain and the macrolide-resistant strain derived from it are available to provide a more accurate assessment of the compound's ability to circumvent the resistance mechanism. […]
Kindly answer with a numeric value in µg/mL, unit omitted.

Q) May I ask what MIC S. pneumo. 1175 has been recorded for CC[C@H]1OC(=O)[C@H](C)C(=O)[C@H](C)[C@@H](O[C@@H]2O[C@H](C)C[C@H](N(C)C)[C@H]2O)[C@](C)(OC)C[C@@H](C)C(=O)[C@H](C)[C@H]2N(CC3(O)CN(S(=O)(=O)c4cccc5cnccc45)C3)C(=O)O[C@]12C ?
A) 0.12

Q) Value lookup for MIC S. pneumo. 1175; key = CC[C@H]1OC(=O)[C@H](C)C(=O)[C@H](C)[C@@H](O[C@@H]2O[C@H](C)C[C@H](N(C)C)[C@H]2O)[C@](C)(OC)C[C@@H](C)C(=O)[C@H](C)[C@H]2N(CC3(O)CN(C(=O)c4cnc5ncccc5c4)C3)C(=O)O[C@]12C
A) 2

Q) Consider the molecule shown here: CCC1OC(=O)C(C)C(=O)C(C)C(OC2OC(C)CC(N(C)C)C2O)C(C)(OC)CC(C)C(=O)C(C)C2N(CC3CCN(Cc4c[nH]nn4)CC3)C(=O)OC12C (stereo not drawn) What is its recorded MIC S. pneumo. 1175?
A) 8

Q) So what does the record say about MIC S. pneumo. 1175 for CCC1OC(=O)C(C)C(=O)C(C)C(OC2OC(C)CC(N(C)C)C2O)C(C)(OC)CC(C)C(=O)C(C)C2N(CC3CCCN3C(=O)c3cc4ccccc4cn3)C(=O)OC12C (stereo not drawn) ?
A) 1

Q) Quick one: MIC S. pneumo. 1175 for CC[C@H]1OC(=O)[C@H](C)C(=O)[C@H](C)[C@@H](O[C@@H]2O[C@H](C)C[C@H](N(C)C)[C@H]2O)[C@](C)(OC)C[C@@H](C)C(=O)[C@H](C)[C@H]2N(CC3(O)CN(C(=O)c4cc5ccncc5[nH]4)C3)C(=O)O[C@]12C ?
A) 1

Q) What MIC S. pneumo. 1175 value was documented for this molecule, CC[C@H]1OC(=O)[C@H](C)C(=O)[C@H](C)[C@@H](O[C@@H]2O[C@H](C)C[C@H](N(C)C)[C@H]2O)[C@](C)(OC)C[C@@H](C)C(=O)[C@H](C)[C@H]2N(C[C@H]3CCCN3C(=O)c3cccc4ncsc34)C(=O)O[C@]12C.O=CO ?
A) 2

Q) Sample CC[C@H]1OC(=O)[C@H](C)C(=O)[C@H](C)[C@@H](O[C@@H]2O[C@H](C)C[C@H](N(C)C)[C@H]2O)[C@](C)(OC)C[C@@H](C)C(=O)[C@H](C)[C@H]2N(CC3(O)CN(S(=O)(=O)c4ccc5[nH]c(=O)oc5c4)C3)C(=O)O[C@]12C — what was its MIC S. pneumo. 1175?
A) 4

Q) Entry under review: CC[C@H]1OC(=O)[C@H](C)C(=O)[C@H](C)[C@@H](O[C@@H]2O[C@H](C)C[C@H](N(C)C)[C@H]2O)[C@](C)(OC)C[C@@H](C)C(=O)[C@H](C)[C@H]2N(CC3(O)CN(C(=O)c4ccc5nccnc5c4)C3)C(=O)O[C@]12C . Reported MIC S. pneumo. 1175?
A) 0.25

* * *

- System: Streptococcus pneumoniae 1175
- Assay type: cell-based
- reported_conditions: Streptococcus pneumoniae 1175; microtiter broth dilution
measurement_kind: MIC S. pneumo. 1175 (µg/mL)
State the answer as a number, implicitly in µg/mL.

Q) MIC S. pneumo. 1175 for CCC1OC(=O)C(C)C(=O)C(C)C(OC2OC(C)CC(N(C)C)C2O)C(C)(OC)CC(C)C(=O)C(C)C2N(CC3CN(Cc4cnc5ccccc5n4)C3)C(=O)OC12C (stereo not shown) ?
A) 0.12

Q) Would you kindly share the measured MIC S. pneumo. 1175 for CCC1OC(=O)C(C)C(=O)C(C)C(OC2OC(C)CC(N(C)C)C2O)C(C)(OC)CC(C)C(=O)C(C)C2N(C3CN(Cc4ccnc5ncccc45)C3)C(=O)OC12C (stereo not shown) ?
A) 0.12

Q) Which measured MIC S. pneumo. 1175 value corresponds to CCC1OC(=O)C(C)C(=O)C(C)C(OC2OC(C)CC(N(C)C)C2O)C(C)(OC)CC(C)C(=O)C(C)C2N(CC3CN(C(=O)c4ccc5ncccc5c4)C3)C(=O)OC12C (stereo not shown) ?
A) 0.25

Q) Entry CCC1OC(=O)C(C)C(=O)C(C)C(OC2OC(C)CC(N(C)C)C2O)C(C)(OC)CC(C)C(=O)C(C)C2N(C3CN(S(=O)(=O)c4cnc5ncccn45)C3)C(=O)OC12C (stereo not shown) : reported MIC S. pneumo. 1175 = ?
A) 0.12

Q) Please give the measured MIC S. pneumo. 1175 for this molecule: CCC1OC(=O)C(C)C(=O)C(C)C(OC2OC(C)CC(N(C)C)C2O)C(C)(OC)CC(C)C(=O)C(C)C2N(C3CN(S(=O)(=O)c4c(C)n[nH]c4C)C3)C(=O)OC12C (stereo not shown)
A) 0.5

Q) MIC S. pneumo. 1175 for CCC1OC(=O)C(C)C(=O)C(C)C(OC2OC(C)CC(N(C)C)C2O)C(C)(OC)CC(C)C(=O)C(C)C2N(C3CN(C(=O)NCc4cnc5ccccc5c4)C3)C(=O)OC12C (stereo not shown) ?
A) 0.12

Q) What MIC S. pneumo. 1175 value was documented for this molecule, CCC1OC(=O)C(C)C(=O)C(C)C(OC2OC(C)CC(N(C)C)C2O)C(C)(OC)CC(C)C(=O)C(C)C2N(C3CN(S(=O)(=O)c4ccc(-c5nnc(C)o5)cc4)C3)C(=O)OC12C (stereo not shown) ?
A) 0.12

Q) Data request, read-out MIC S. pneumo. 1175, for CCC1OC(=O)C(C)C(=O)C(C)C(OC2OC(C)CC(N(C)C)C2O)C(C)(OC)CC(C)C(=O)C(C)C2N(C3CN(S(=O)(=O)c4ccc5c(c4)CC(=O)N5)C3)C(=O)OC12C (stereo not shown)
A) 0.5

* * *

- Tested on: Streptococcus pneumoniae 1095
- Assay type: cell-based
- reported_conditions: S. pneumoniae 1095 (ermB); microtiter broth dilution
Can you tell me MIC S. pneumo. 1095 for the items I'm about to list?
Give just the number in µg/mL; leave the unit off.

Q) Can you share its MIC S. pneumo. 1095? I mean this molecule: CCC1OC(=O)C(C)C(=O)C(C)C(OC2OC(C)CC(N(C)C)C2O)C(C)(OC)CC(C)C(=O)C(C)C2N(CC3(O)CN(S(=O)(=O)c4cccc5cccnc45)C3)C(=O)OC12C (stereo not shown)
A) 32

Q) Value lookup for MIC S. pneumo. 1095; key = CCC1OC(=O)C(C)C(=O)C(C)C(OC2OC(C)CC(N(C)C)C2O)C(C)(OC)CC(C)C(=O)C(C)C2N(CC3CCN(C(=O)c4cnc5ccccc5c4)C3)C(=O)OC12C (stereo not shown) [11.17]
A) 8

Q) Consider the molecule shown here: CCC1OC(=O)C(C)C(=O)C(C)C(OC2OC(C)CC(N(C)C)C2O)C(C)(OC)CC(C)C(=O)C(C)C2N(CC3CCCN3Cc3cccc(OC)n3)C(=O)OC12C (stereo not shown) What is its recorded MIC S. pneumo. 1095?
A) 2

Q) MIC S. pneumo. 1095 lookup needed for CC[C@H]1OC(=O)[C@H](C)C(=O)[C@H](C)[C@@H](O[C@@H]2O[C@H](C)C[C@H](N(C)C)[C@H]2O)[C@](C)(OC)C[C@@H](C)C(=O)[C@H](C)[C@H]2N(CC3(O)CN(C(=O)c4cccc5ncccc45)C3)C(=O)O[C@]12C , thanks.
A) 0.12

Q) Quick check: MIC S. pneumo. 1095 of CC[C@H]1OC(=O)[C@H](C)C(=O)[C@H](C)[C@@H](O[C@@H]2O[C@H](C)C[C@H](N(C)C)[C@H]2O)[C@](C)(OC)C[C@@H](C)C(=O)[C@H](C)[C@H]2N(CC3(O)CN(C(=O)c4ccc5nccnc5c4)C3)C(=O)O[C@]12C ?
A) 0.25

* * *

Would you kindly list MIC S. pneumo. 1175 for each of these compounds?
- Tested on: Streptococcus pneumoniae 1175
- Type: cell-based
- reported_conditions: Streptococcus pneumoniae 1175; microtiter broth dilution

Q) Give its MIC S. pneumo. 1175 value. Item: CCC1OC(=O)C(C)C(=O)C(C)C(OC2OC(C)CC(N(C)C)C2O)C(C)(OC)CC(C)C(=O)C(C)C2N(C3CN(Cc4ccc5nc(C)sc5n4)C3)C(=O)OC12C (stereo not drawn)
A) 0.12 µg/mL

Q) Query (compound): CCC1OC(=O)C(C)C(=O)C(C)C(OC2OC(C)CC(N(C)C)C2O)C(C)(OC)CC(C)C(=O)C(C)C2N(C3CN(Cc4ccnc5[nH]c(C6CC6)nc45)C3)C(=O)OC12C (stereo not drawn) ; field requested: MIC S. pneumo. 1175
A) <0.063 µg/mL

Q) Recorded MIC S. pneumo. 1175 of CCC1OC(=O)C(C)C(=O)C(C)C(OC2OC(C)CC(N(C)C)C2O)C(C)(OC)CC(C)C(=O)C(C)C2N(C3CN(C(COC)c4ccnc5ncccc45)C3)C(=O)OC12C (stereo not drawn) [Example 1.81] , please.
A) <0.063 µg/mL
